Sourced from the METLIN SMRT retention time set (Domingo-Almenara et al. 2019)

Assay: gradient 5% acetonitrile 3 min, to 50% in 2 min, to 85% in 15 min, held 3 min, 100 µL/min
Conditions: column: Zorbax Extend-C18 2.1 x 50 mm; eluents: water / acetonitrile, 0.1% formic acid
experimental endpoint: RP-LC retention time (s)

O=C(Cn1c(=O)c2cccn2c2ccc(F)cc21)NCC1CCCO1 (stereo not drawn) :: 703

P: CCc1ccc(NC(=O)N2CCCC(C)(C(=O)NCc3cccc(OC)c3)C2)cc1 (stereo not drawn)
Q: CN(C)c1ccc(O)c2c1C[C@H]1C[C@H]3[C@H](N(C)C)C(=O)C(C(N)=O)=C(O)[C@@]3(O)C(=O)C1=C2O
Among P and Q , whose measured RP-LC retention time is the smaller figure? Reply briefly: the label of your chosen item. Q
(Q: 596 s, P: 968 s)

----------
Test: gradient 5% acetonitrile 3 min, to 50% in 2 min, to 85% in 15 min, held 3 min, 100 µL/min
Settings: column: Zorbax Extend-C18 2.1 x 50 mm; eluents: water / acetonitrile, 0.1% formic acid
experimental endpoint: RP-LC retention time (s)

CCCCN1CCN(C(=O)C2CC(=O)N(c3ccc4c(c3)CCN4C(=O)C3CC3)C2)CC1 (stereo not given) :: 599
Cc1cc(C(=O)NCc2ccc3c(c2)OCO3)c2ccccc2n1 :: 637
Cn1cc2c3c(cccc31)CN(C(=O)Cc1ccccc1F)CC2 :: 954

I: O=C(COc1ccc(F)cc1)N1CC(n2cc(COCC3CC3)nn2)C1
II: Cc1ccc2nc(-c3ccc(NC(=O)c4cnc5sccn5c4=O)cc3)sc2c1
Response body: label of entry with the larger RP-LC retention time; valid values I , II . Reply briefly: the label of your chosen item. II

----------
Assay: gradient 5% acetonitrile 3 min, to 50% in 2 min, to 85% in 15 min, held 3 min, 100 µL/min
Conditions: column: Zorbax Extend-C18 2.1 x 50 mm; eluents: water / acetonitrile, 0.1% formic acid
experimental endpoint: RP-LC retention time (s)

CCOC(=O)c1c(S(=O)(=O)N2CCC(C(=O)Nc3ccc(F)cc3)CC2)c(C)n(CC)c1C :: 897
COc1ccc(S(=O)(=O)N2CCCC(C(=O)Nc3ccc4c(c3)OCCO4)C2)cc1Cl (centres undefined) :: 938
CCN1CCCn2cc(S(=O)(=O)Nc3cc(C)cc(C)c3)cc2C1=O :: 768
CCn1c(C)c(CCC(=O)Nc2ccc(C)c(C)c2)c(=O)n2nc(-c3ccccc3)nc12 :: 935
CCOc1ccc2nc(NC(=O)C3CCCN(c4ncnc5c4nc4n5CCCCC4)C3)sc2c1 (centres undefined) :: 1000
Cc1ccccc1OCC(=O)Nc1cnn(C)c(=O)c1N1CCOCC1 :: 810
COc1ccc(NC(=O)NCCc2cn(C)c3ncccc23)cc1 :: 633
Cn1nc(-c2nc(Cc3ccccc3)no2)c2c1CCN(C(=O)NC(C)(C)C)C2 :: 889
CCN1c2cc(F)ccc2C(=O)NC12CCN(C(=O)c1ccc3c(c1)OCO3)CC2 :: 771

----------
Experiment: gradient 5% acetonitrile 3 min, to 50% in 2 min, to 85% in 15 min, held 3 min, 100 µL/min
Conditions: column: Zorbax Extend-C18 2.1 x 50 mm; eluents: water / acetonitrile, 0.1% formic acid
experimental endpoint: RP-LC retention time (s)

Below, each entry is followed by its recorded RP-LC retention time result.
Cc1cccc2nnc(N3CCC(C(=O)Nc4ccc(Cl)cc4)CC3)n12 :: 656
CCOc1cc(CNc2ccc3[nH]c(=O)[nH]c3c2)cc(Br)c1OCC :: 717
Cc1cc(C)c2c(N3CCSCC3)nc(C(=O)N3CCN(c4ccccc4)CC3)nc2n1 :: 722
CC(C)(C)C(O)CCNC(=O)NCc1ccc(F)cc1 (stereo not given) :: 705
CCOc1ccc(NC(=O)C2CCCN(c3nnc4ccccn34)C2)cc1 (stereo not given) :: 674
O=C1C(Br)=Cc2cccc3cccc1c23 :: 996
COc1ccc(NC(=O)C2CN(S(=O)(=O)c3cccnc3)CC23CCCCC3)cc1 (stereo not given) :: 890
O=C(NCc1ccccc1)Nc1cccc(-c2ccc(N3CCOCC3)nn2)c1 :: 672
Cc1cc(=O)oc2c(C)c(OCC(O)CN3CCN(c4ccccn4)CC3)ccc12 (stereo not given) :: 572
O=C(NCCCN1CCCC1)c1cc2n(n1)CCCN(Cc1ccc(F)cc1)C2=O :: 619

P: O=C1CN(S(=O)(=O)c2ccc(F)c(Cl)c2)CC2(CCCCC2)N1C1CCCC1
Q: CN(CC1CCOC1)C(=O)c1ccccc1Br (stereo not given)
Among P and Q , whose measured RP-LC retention time is the smaller figure? Reply briefly: the label of your chosen item. Q
